- tested-system: Amyloid-beta precursor protein (Homo sapiens)
- test: Inhibition of HFIP-pretreated amyloid beta (1 to 42 residues) (unknown origin) self aggregation at 25 uM after 7 days by ThT-based fluorometric method relative to control
Calls of active or inactive are those of the source. No cut-off for these calls is given here.

- molecule: "O=C(O[C@@H]1Cc2c(O)cc(O)cc2O[C@@H]1c1cc(O)c(O)c(O)c1)c1cc(O)c(O)c(O)c1 [EPIGALOCATECHIN GALLATE]"
  inhibition: "52.9%"
- molecule: "COc1ccc(/C=C/C(=O)c2cc(O)cc(O)c2)cc1"
  inhibition: "19%"
- molecule: "Cc1cccc(/C=C/C(=O)c2cccc(O)c2)c1"
  inhibition: "inactive"
- molecule: "COCOc1ccc(C(=O)/C=C/c2cccc(Cl)c2)c(O)c1OCOC"
  inhibition: "16.4%"
- molecule: "COc1ccc(/C=C/C(=O)c2ccc(O)c(O)c2O)cc1"
  inhibition: "70.3 to 76.3%"
- molecule: "COCOc1ccc(C(=O)/C=C/c2cccc(C)c2)c(O)c1OCOC"
  inhibition: "16.4%"
- molecule: "COCOc1ccc(C(=O)/C=C/c2ccc(OC)cc2)c(O)c1OCOC"
  inhibition: "16.4%"
- molecule: "O=C(/C=C/c1cccc(Cl)c1)c1ccc(O)c(O)c1O"
  inhibition: "70.3 to 76.3%"
- molecule: "Cc1cccc(/C=C/C(=O)c2cc(O)cc(O)c2)c1"
  inhibition: "27.2%"
- molecule: "COc1ccc(/C=C/C(=O)c2cccc(O)c2)cc1OC"
  inhibition: "inactive"
- molecule: "Cc1cccc(/C=C/C(=O)c2ccc(O)c(O)c2O)c1"
  inhibition: "70.3 to 76.3%"
